All values here come from the COVID Moonshot data (paper PMC11187573).

PARTICULARS: 100.0 µM
Listed here are compounds together with their documented relative solubility at 100 uM.

# COMPOUND, relative solubility at 100 uM
records = [
    ("Nc1cccc(C2CN(C(=O)CCl)Cc3ccccc32)c1 (centres undefined)", 0.96),
    ("C=CC(=O)N1CCCN(Cc2ccccc2)CC1", 1),
    ("C=CC(=O)N(c1cc(C(C)(C)C)on1)C(C(=O)NCCc1cccc(F)c1)c1cncc(C)c1 (centres undefined)", 0.91),
    ("Cc1ccncc1NC(=O)Cc1cccc(Br)c1", 1),
    ("C=CC(=O)N(c1ccc(C(C)(C)C)cc1)C(C(=O)NCCc1cccc(F)c1)c1cncc(C)c1 (centres undefined)", 0.28),
    ("Cc1ccncc1NC(=O)CC(C)C(C)C (centres undefined)", 1),
    ("NS(=O)(=O)c1ccc(N2CCC(CO)CC2)cc1", 1),
    ("C=CC(=O)N(c1ccc2ncsc2c1)C(C(=O)Nc1c(C)cccc1CC)c1cccnc1 (centres undefined)", 0.97),
    ("CC(C)c1scnc1NC(=O)C1CCOc2ccc(Cl)cc21 (centres undefined)", 0.99),
    ("NS(=O)(=O)c1ccc(N2CCC(c3ccncc3)CC2)cc1", 0.94),
    ("COc1cc(NC(=O)C(=O)Nc2cc(OC)c(OC)c(OC)c2)cc(OC)c1OC", 0.92),
    ("O=C(c1cc(=O)[nH]c2ccccc12)N1CCN(c2ccccc2)CC1", 1),
    ("CC(=O)N[C@@H](C)C(=O)Nc1cnccc1C (stereo in doubt)", 1),
    ("O=C(NCC(O)Cn1ccnn1)c1ccccc1OC1CCC1 (centres undefined)", 1),
    ("C=CC(=O)N(c1cc(C(C)(C)C)on1)C(C(=O)Nc1c(C)cccc1CC)c1cccnc1 (centres undefined)", 0.9),
    ("NS(=O)(=O)c1ccc(N2CCC(CN3CCCCCC3)CC2)cc1", 0.91),
    ("C=CC(=O)N1CCCC(N(CC2CCCCC2)C2CCC(O)CC2)C1 (centres undefined)", 1),
    ("O=C(CCl)N1CCN(S(=O)(=O)c2cccc(F)c2)CC1", 1),
    ("CN(C)c1ncccc1N(C)C(=O)C1CCOc2ccc(Cl)cc21 (centres undefined)", 0.99),
    ("O=C(NCC1COc2ccccc2O1)c1cc(=O)[nH]c2ccc(F)cc12 (centres undefined)", 0.79),
    ("C=CC(=O)N(c1ccc(C(C)(C)C)cc1)C(C(=O)Nc1ccc(F)cc1C)c1cccnc1 (centres undefined)", 0.91),
    ("Sc1nc2ccccc2c2nc(CCc3ccccc3)nn12", 0.89),
    ("O=C1CC(Oc2cccc(C(=O)NCc3cncnc3)c2)N1 (centres undefined)", 1),
    ("CS(=O)(=O)NCCc1ccccc1O", 1),
    ("O=C(Cc1ccc(F)cc1)Nc1cccc2cc[nH]c12", 0.88),
    ("COc1ncccc1N(C)C(=O)C1CCOc2ccc(Cl)cc21 (centres undefined)", 0.98),
    ("COc1ccccc1OCCNC(=O)c1cc(=O)[nH]c2cc(F)ccc12", 0.66),
    ("COc1cccc(NC(=O)Nc2cccc(C#N)c2)c1", 0.94),
    ("C=CC(=O)Nc1cc(C(=O)NC[C@H](Cc2ccccc2)c2ccccn2)ccc1O (stereo in doubt)", 0.82),
]
